experiment: Volume of distribution at steady state in mouse at 5.5 mg/kg, iv; format: ADME, organism-based; design: dose 5.5 mg/kg, route intravenous; settings: in vivo, read-out: Vdss
measure: Vd (L/kg)
Give the quantity in L/kg, number only.

Note down Vd recorded for Cc1ncc(-c2ccnc(Nc3ccc(S(C)(=O)=O)cc3)n2)n1C(C)C
1.01

* * *

Please respond with reported solubility for every item in the list.
experiment: physchem; settings: buffer, pH 7.4
Give the quantity in µM, number only.

Note down solubility recorded for CN(C)CCNS(=O)(=O)c1ccc(Nc2nccc(-c3cnc4ccccn34)n2)cc1
31

Note down solubility recorded for Cc1ncc(-c2ccnc(Nc3ccc(S(C)(=O)=O)cc3)n2)n1C(C)C
218

Note down solubility recorded for CN(C)CCCNS(=O)(=O)c1ccc(Nc2nccc(-c3cnc4cccnn34)n2)cc1
160

Note down solubility recorded for NS(=O)(=O)c1ccc(Nc2nccc(-c3cnc4ccccn34)n2)cc1
6.5
